# Tested on: 276233-004-R-J1-PDC spheroids with HUVEC/MSC, viability
# Protocol summary: Anticancer human tumor 276233-004-R-J1-PDC patient-derived colon adenocarcinoma cell line growth inhibition [TAK]
# Cond: curve of first compound; second compound 0.949 µM
pIC50: −log10 of the molar value.
pIC50 below 7 gives false; pIC50 at or above it gives true.

See these solved cases before continuing.
Compound	Discrete label
CC(C)CC(NC(=O)CNC(=O)c1cc(Cl)ccc1Cl)B1OC(=O)CC(CC(=O)O)(C(=O)O)O1 (stereo not given) + CC(C)NCC(C(=O)N1CCN(c2ncnc3c2C(C)CC3O)CC1)c1ccc(Cl)cc1	true
CC(C)CC(NC(=O)C(Cc1ccccc1)NC(=O)c1cnccn1)B(O)O (stereo not given) + CC(C)NCC(C(=O)N1CCN(c2ncnc3c2C(C)CC3O)CC1)c1ccc(Cl)cc1	true
CC(C)(C)c1nc(-c2cccc(NS(=O)(=O)c3c(F)cccc3F)c2F)c(-c2ccnc(N)n2)s1 + CC(C)NCC(C(=O)N1CCN(c2ncnc3c2C(C)CC3O)CC1)c1ccc(Cl)cc1	false
COc1c(OCCCN2CCOCC2)ccc2c3n(c(=NC(=O)c4cnc(N)nc4)nc12)CCN3 + CC(C)NCC(C(=O)N1CCN(c2ncnc3c2C(C)CC3O)CC1)c1ccc(Cl)cc1	true
COC1CC2CCC(C)C(O)(O2)C(=O)C(=O)N2CCCCC2C(=O)OC(C(C)CC2CCC(OCCO)C(OC)C2)CC(=O)C(C)C=C(C)C(O)C(OC)C(=O)C(C)CC(C)C=CC=CC=C1C (stereo not given) + CC(C)NCC(C(=O)N1CCN(c2ncnc3c2C(C)CC3O)CC1)c1ccc(Cl)cc1	false

Please check the record Cn1cnc2c(F)c(Nc3ccc(Br)cc3Cl)c(C(=O)NOCCO)cc21 + CC(C)NCC(C(=O)N1CCN(c2ncnc3c2C(C)CC3O)CC1)c1ccc(Cl)cc1 and state if its pIC50 is at or above 7.
false

Please check the record CC(=O)Nc1cccc(-n2c(=O)n(C3CC3)c(=O)c3c(Nc4ccc(I)cc4F)n(C)c(=O)c(C)c32)c1 + CC(C)NCC(C(=O)N1CCN(c2ncnc3c2C(C)CC3O)CC1)c1ccc(Cl)cc1 and state if its pIC50 is at or above 7.
true

Please check the record Cc1nc(NC(=O)N2CCCC2C(N)=O)sc1-c1ccnc(C(C)(C)C(F)(F)F)c1 (stereo not given) + CC(C)NCC(C(=O)N1CCN(c2ncnc3c2C(C)CC3O)CC1)c1ccc(Cl)cc1 and state if its pIC50 is at or above 7.
false

Please check the record CC(C)n1nc(-c2ccc3oc(N)nc3c2)c2c(N)ncnc21 + CC(C)NCC(C(=O)N1CCN(c2ncnc3c2C(C)CC3O)CC1)c1ccc(Cl)cc1 and state if its pIC50 is at or above 7.
false

Please check the record CCCS(=O)(=O)Nc1ccc(F)c(C(=O)c2c[nH]c3ncc(-c4ccc(Cl)cc4)cc23)c1F + CC(C)NCC(C(=O)N1CCN(c2ncnc3c2C(C)CC3O)CC1)c1ccc(Cl)cc1 and state if its pIC50 is at or above 7.
false

* * *

# Tested on: 276233-004-R-J1-PDC spheroids with HUVEC/MSC, viability
# Protocol summary: Anticancer human tumor 276233-004-R-J1-PDC cell line growth inhibition [TAK];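 further: spheroids exposed to drugs for seven days before the viability read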
# Cond: second compound 0.949 µM; first compound 0.00316 µM; stronger effect = lower value
# viability, T/C listing for each entry below
State the answer as a number, implicitly in %.

Compound	Result units	viability, T/C
CC(C)CC(NC(=O)C(Cc1ccccc1)NC(=O)c1cnccn1)B(O)O (stereo not given) + CC(C)NCC(C(=O)N1CCN(c2ncnc3c2C(C)CC3O)CC1)c1ccc(Cl)cc1	%	82.9
CC(C)CC(NC(=O)CNC(=O)c1cc(Cl)ccc1Cl)B1OC(=O)CC(CC(=O)O)(C(=O)O)O1 (stereo not given) + CC(C)NCC(C(=O)N1CCN(c2ncnc3c2C(C)CC3O)CC1)c1ccc(Cl)cc1	%	101
COC1CC2CCC(C)C(O)(O2)C(=O)C(=O)N2CCCCC2C(=O)OC(C(C)CC2CCC(OCCO)C(OC)C2)CC(=O)C(C)C=C(C)C(O)C(OC)C(=O)C(C)CC(C)C=CC=CC=C1C (stereo not given) + CC(C)NCC(C(=O)N1CCN(c2ncnc3c2C(C)CC3O)CC1)c1ccc(Cl)cc1	%	81.9
COc1c(OCCCN2CCOCC2)ccc2c3n(c(=NC(=O)c4cnc(N)nc4)nc12)CCN3 + CC(C)NCC(C(=O)N1CCN(c2ncnc3c2C(C)CC3O)CC1)c1ccc(Cl)cc1	%	67

Value of viability, T/C reported for the compound CC(C)n1nc(-c2ccc3oc(N)nc3c2)c2c(N)ncnc21 + CC(C)NCC(C(=O)N1CCN(c2ncnc3c2C(C)CC3O)CC1)c1ccc(Cl)cc1 is 83.9
